Recorded values, source PubChem BioAssay AID2060603.

- Tested on: 422866-222-R5-J1-PDC spheroid viability
- method: Anticancer human tumor 422866-222-R5-J1-PDC patient-derived pancreatic adenocarcinoma cell line growth inhibition [CLK]
- condition-summary: second compound 3.16 µM; first compound 0.0316 µM; stronger effect = lower value; spheroids with HUVEC and MSC
- Excerpt: A high-throughput screen of multi-cell type tumor spheroids was designed to identify active combinations of […] and targeted small molecules. Complex spheroids include a stromal component modeled by human endothelial cells (HUVEC) and fibroblasts modeled by human mesenchymal stem cells (MSCs). […] Compounds. […] If the clinical Cmax for an agent had not been determined, the highest concentration tested was 10 microM. […]
Reported viability, T/C values are given for each entry in this list.
Output spec: scalar in %, unitless text.

compound="CCN1CCN(Cc2ccc(Nc3ncc(F)c(-c4cc(F)c5nc(C)n(C(C)C)c5c4)n3)nc2)CC1 + CN1CCN(c2cc(C(=O)Nc3cc4cc(-c5cnn(C)c5)ccc4cn3)ccn2)CC1" recorded_number=8.82
compound="COc1ccc([C@@H](O)c2cc(-c3ncnc4cc(N5CCOCC5)ccc34)c(F)cc2Cl)nn1 + CN1CCN(c2cc(C(=O)Nc3cc4cc(-c5cnn(C)c5)ccc4cn3)ccn2)CC1" recorded_number=7.87
compound="COc1c(OCCCN2CCOCC2)ccc2c3n(c(=NC(=O)c4cnc(N)nc4)nc12)CCN3 + CN1CCN(c2cc(C(=O)Nc3cc4cc(-c5cnn(C)c5)ccc4cn3)ccn2)CC1" recorded_number=11.9

Please report the recorded viability, T/C for C=CC(=O)N1CCN(c2nc(=O)n(-c3c(C)ccnc3C(C)C)c3nc(-c4c(O)cccc4F)c(F)cc23)C(C)C1 (stereo not given) + CN1CCN(c2cc(C(=O)Nc3cc4cc(-c5cnn(C)c5)ccc4cn3)ccn2)CC1 .
4.94

Please report the recorded viability, T/C for Cn1ncnc1[C@H]1c2n[nH]c(=O)c3cc(F)cc(c23)N[C@@H]1c1ccc(F)cc1 + CN1CCN(c2cc(C(=O)Nc3cc4cc(-c5cnn(C)c5)ccc4cn3)ccn2)CC1 .
7.43

Please report the recorded viability, T/C for CCc1c2c(nc3ccc(O)cc13)-c1cc3c(c(=O)n1C2)COC(=O)[C@]3(O)CC + CNC(=O)c1ccc(Nc2nc(OC3CCCC3)c3c(-c4ccc5nc(C)oc5c4)c[nH]c3n2)c(OC)c1 .
33

Please report the recorded viability, T/C for Nc1ccccc1NC(=O)c1ccc(CNC(=O)OCc2cccnc2)cc1 + CN1CCN(c2cc(C(=O)Nc3cc4cc(-c5cnn(C)c5)ccc4cn3)ccn2)CC1 .
8.75

Please report the recorded viability, T/C for Nc1ccn(C2OC(CO)C(O)C2(F)F)c(=O)n1 (stereo not given) + CNC(=O)c1ccc(Nc2nc(OC3CCCC3)c3c(-c4ccc5nc(C)oc5c4)c[nH]c3n2)c(OC)c1 .
55.2

Please report the recorded viability, T/C for CC(=O)O[C@H]1C(=O)[C@@]2(C)[C@H]([C@H](OC(=O)c3ccccc3)[C@]3(O)C[C@H](OC(=O)[C@H](O)[C@@H](NC(=O)c4ccccc4)c4ccccc4)C(C)=C1C3(C)C)[C@]1(OC(C)=O)CO[C@@H]1C[C@@H]2O + CNC(=O)c1ccc(Nc2nc(OC3CCCC3)c3c(-c4ccc5nc(C)oc5c4)c[nH]c3n2)c(OC)c1 .
56.5

Please report the recorded viability, T/C for O=C(c1cc(Cc2n[nH]c(=O)c3ccccc23)ccc1F)N1CCN(C(=O)C2CC2)CC1 + CNC(=O)c1ccc(Nc2nc(OC3CCCC3)c3c(-c4ccc5nc(C)oc5c4)c[nH]c3n2)c(OC)c1 .
68

* * *

Reported viability, T/C values are given for each entry in this list.
- System: 422866-222-R5-J1-PDC spheroid viability
- method: Anticancer human tumor 422866-222-R5-J1-PDC cell line growth inhibition [CLK];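 further: spheroids exposed to agents for seven days before readout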
- condition-summary: second compound 0.316 µM; first compound 1 µM; stronger effect = lower value; spheroids with HUVEC and MSC
Output spec: scalar in %, unitless text.

Please report the recorded viability, T/C for CCCS(=O)(=O)Nc1ccc(F)c(C(=O)c2c[nH]c3ncc(-c4ccc(Cl)cc4)cc23)c1F + CNC(=O)c1ccc(Nc2nc(OC3CCCC3)c3c(-c4ccc5nc(C)oc5c4)c[nH]c3n2)c(OC)c1 .
105

Please report the recorded viability, T/C for CC(Nc1ccc2c(c1)OCCn1cc(N3C(=O)OCC3C(F)F)nc1-2)C(N)=O (centres undefined) + CNC(=O)c1ccc(Nc2nc(OC3CCCC3)c3c(-c4ccc5nc(C)oc5c4)c[nH]c3n2)c(OC)c1 .
28.1

Please report the recorded viability, T/C for CC1(C)CCC(CN2CCN(c3ccc(C(=O)NS(=O)(=O)c4ccc(NCC5CCOCC5)c([N+](=O)[O-])c4)c(Oc4cnc5[nH]ccc5c4)c3)CC2)=C(c2ccc(Cl)cc2)C1 + CNC(=O)c1ccc(Nc2nc(OC3CCCC3)c3c(-c4ccc5nc(C)oc5c4)c[nH]c3n2)c(OC)c1 .
75.7

Please report the recorded viability, T/C for CC1(C)CCC(CN2CCN(c3ccc(C(=O)NS(=O)(=O)c4ccc(NCC5CCOCC5)c([N+](=O)[O-])c4)c(Oc4cnc5[nH]ccc5c4)c3)CC2)=C(c2ccc(Cl)cc2)C1 + CN1CCN(c2cc(C(=O)Nc3cc4cc(-c5cnn(C)c5)ccc4cn3)ccn2)CC1 .
91.2

* * *

- Test system: 422866-222-R5-J1-PDC spheroid viability
- method: Anticancer human tumor 422866-222-R5-J1-PDC cell line growth inhibition [CLK];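 further: spheroids exposed to agents for seven days before readout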
- condition-summary: second compound 0.0316 µM; first compound 0.316 µM; stronger effect = lower value; spheroids with HUVEC and MSC
- Source text: A high-throughput screen of multi-cell type tumor spheroids was designed to identify active combinations of […] and targeted small molecules. Complex spheroids include a stromal component modeled by human endothelial cells (HUVEC) and fibroblasts modeled by human mesenchymal stem cells (MSCs). […] Compounds. […] If the clinical Cmax for an agent had not been determined, the highest concentration tested was 10 microM. […]
measurement-name: viability, T/C (%)
Output spec: scalar in %, unitless text.

For orientation, consider the following solved cases.
compound="C=CC(=O)N1CCN(c2nc(=O)n(-c3c(C)ccnc3C(C)C)c3nc(-c4c(O)cccc4F)c(F)cc23)C(C)C1 (stereo not given) + CN1CCN(c2cc(C(=O)Nc3cc4cc(-c5cnn(C)c5)ccc4cn3)ccn2)CC1" recorded_number=40.1
compound="COc1ccc([C@@H](O)c2cc(-c3ncnc4cc(N5CCOCC5)ccc34)c(F)cc2Cl)nn1 + CN1CCN(c2cc(C(=O)Nc3cc4cc(-c5cnn(C)c5)ccc4cn3)ccn2)CC1" recorded_number=88.8
compound="COc1c(OCCCN2CCOCC2)ccc2c3n(c(=NC(=O)c4cnc(N)nc4)nc12)CCN3 + CN1CCN(c2cc(C(=O)Nc3cc4cc(-c5cnn(C)c5)ccc4cn3)ccn2)CC1" recorded_number=28.9
compound="Nc1ccccc1NC(=O)c1ccc(CNC(=O)OCc2cccnc2)cc1 + CNC(=O)c1ccc(Nc2nc(OC3CCCC3)c3c(-c4ccc5nc(C)oc5c4)c[nH]c3n2)c(OC)c1" recorded_number=157

// switching to the query compound
Please report the recorded viability, T/C for CC(Nc1ccc2c(c1)OCCn1cc(N3C(=O)OCC3C(F)F)nc1-2)C(N)=O (stereo not given) + CN1CCN(c2cc(C(=O)Nc3cc4cc(-c5cnn(C)c5)ccc4cn3)ccn2)CC1 .
44.5

* * *

- Test system: 422866-222-R5-J1-PDC spheroid viability
- method: Anticancer human tumor 422866-222-R5-J1-PDC cell line growth inhibition [CLK];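 further: spheroids exposed to agents for seven days before readout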
- condition-summary: second compound 0.0316 µM; first compound 3.16 µM; stronger effect = lower value; spheroids with HUVEC and MSC
- From the text: A high-throughput screen of multi-cell type tumor spheroids was designed to identify active combinations of […] and targeted small molecules. Complex spheroids include a stromal component modeled by human endothelial cells (HUVEC) and fibroblasts modeled by human mesenchymal stem cells (MSCs). […] Compounds. […] If the clinical Cmax for an agent had not been determined, the highest concentration tested was 10 microM. […]
Class (by viability, T/C) -- small value: < 40%; mid value: ≥ 40% and < 90%; large value: ≥ 90%

Worked examples follow.
compound="CC(=O)O[C@H]1C(=O)[C@@]2(C)[C@H]([C@H](OC(=O)c3ccccc3)[C@]3(O)C[C@H](OC(=O)[C@H](O)[C@@H](NC(=O)c4ccccc4)c4ccccc4)C(C)=C1C3(C)C)[C@]1(OC(C)=O)CO[C@@H]1C[C@@H]2O + CNC(=O)c1ccc(Nc2nc(OC3CCCC3)c3c(-c4ccc5nc(C)oc5c4)c[nH]c3n2)c(OC)c1" assigned_label="large value"
compound="CC(Nc1ccc2c(c1)OCCn1cc(N3C(=O)OCC3C(F)F)nc1-2)C(N)=O (stereo not given) + CN1CCN(c2cc(C(=O)Nc3cc4cc(-c5cnn(C)c5)ccc4cn3)ccn2)CC1" assigned_label="small value"
compound="COc1cccc2c1C(=O)c1c(O)c3c(c(O)c1C2=O)CC(O)(C(=O)CO)CC3OC1CC(N)C(O)C(C)O1 (stereo not given) + CNC(=O)c1ccc(Nc2nc(OC3CCCC3)c3c(-c4ccc5nc(C)oc5c4)c[nH]c3n2)c(OC)c1" assigned_label="small value"
compound="Nc1ccccc1NC(=O)c1ccc(CNC(=O)OCc2cccnc2)cc1 + CN1CCN(c2cc(C(=O)Nc3cc4cc(-c5cnn(C)c5)ccc4cn3)ccn2)CC1" assigned_label="mid value"
compound="Nc1ccccc1NC(=O)c1ccc(CNC(=O)OCc2cccnc2)cc1 + CNC(=O)c1ccc(Nc2nc(OC3CCCC3)c3c(-c4ccc5nc(C)oc5c4)c[nH]c3n2)c(OC)c1" assigned_label="mid value"

Tag the class for C=C(F)C(=O)N1CCN(c2nc(OCC3CCCN3C)nc3c2CCN(c2cccc4cccc(Cl)c24)C3)CC1CC#N (stereo not given) + CNC(=O)c1ccc(Nc2nc(OC3CCCC3)c3c(-c4ccc5nc(C)oc5c4)c[nH]c3n2)c(OC)c1
small value

Tag the class for O=c1[nH]cc(F)c(=O)[nH]1 + CNC(=O)c1ccc(Nc2nc(OC3CCCC3)c3c(-c4ccc5nc(C)oc5c4)c[nH]c3n2)c(OC)c1
mid value

Tag the class for O=C(c1cc(Cc2n[nH]c(=O)c3ccccc23)ccc1F)N1CCN(C(=O)C2CC2)CC1 + CN1CCN(c2cc(C(=O)Nc3cc4cc(-c5cnn(C)c5)ccc4cn3)ccn2)CC1
large value
